Tested on: A549
Assay: cells
Conditions: Homo sapiens, A549, 48 h
Description: Cytotoxicity against human A549 cells after 48 hrs by MTT assay
readout.name: IC50 (µM)

| given.smiles | IC50, µM |
| --- | --- |
| COc1ccc(C[C@@H]2NC(=O)/C=C/C[C@@H](c3ccc(Br)cc3)OC(=O)[C@H](CC(C)C)OC(=O)CCNC2=O)cc1 | 56 |
| COc1ccc(C[C@H]2NC(=O)/C=C/C[C@@H](c3ccccc3[N+](=O)[O-])OC(=O)[C@H](CC(C)C)OC(=O)CCNC2=O)cc1 | 15 |
| COc1ccc(C[C@@H]2NC(=O)/C=C/C[C@@H](c3ccccc3[N+](=O)[O-])OC(=O)[C@H](CC(C)C)OC(=O)CCNC2=O)cc1 | 13 |

(a) COc1ccc(C[C@@H]2NC(=O)/C=C/C[C@@H](c3ccc(Cl)cc3Cl)OC(=O)[C@H](CC(C)C)OC(=O)CCNC2=O)cc1
(b) COc1ccc(C[C@H]2NC(=O)/C=C/C[C@@H](c3c(F)c(F)c(F)c(F)c3F)OC(=O)[C@H](CC(C)C)OC(=O)CCNC2=O)cc1
(c) COc1ccc(C[C@@H]2NC(=O)/C=C/C[C@@H](c3ccc([N+](=O)[O-])cc3)OC(=O)[C@H](CC(C)C)OC(=O)CCNC2=O)cc1
(d) CC(=O)O[C@H]1C(=O)[C@@]2(C)[C@H]([C@H](OC(=O)c3ccccc3)[C@]3(O)C[C@H](OC(=O)[C@H](O)[C@@H](NC(=O)c4ccccc4)c4ccccc4)C(C)=C1C3(C)C)[C@]1(OC(C)=O)CO[C@@H]1C[C@@H]2O
Prompt: Number of compounds to sort: 4. Sort criterion: IC50, ascending. Note for the reader: the ranking is given by listing the labels in the order requested.
Completion: d, c, b, a

(a) COc1ccc(C[C@H]2NC(=O)/C=C/C[C@@H](c3ccc(Br)cc3)OC(=O)[C@H](CC(C)C)OC(=O)CCNC2=O)cc1
(b) COc1ccc(C[C@@H]2NC(=O)/C=C/C[C@@H](c3cccc([N+](=O)[O-])c3)OC(=O)[C@H](CC(C)C)OC(=O)CCNC2=O)cc1
(c) COc1ccc(C[C@H]2NC(=O)/C=C/C[C@@H](c3ccc([N+](=O)[O-])cc3)OC(=O)[C@H](CC(C)C)OC(=O)CCNC2=O)cc1
Prompt: Number of compounds to sort: 3. Sort criterion: IC50, ascending. Note for the reader: the ranking is given by listing the labels in the order requested.
Completion: c, a, b

----------
System: A549
Assay: cells
Settings: Homo sapiens, A549, 48 h
pIC50: −log10 of the molar value.
readout.name: pIC50

Worked set:
| given.smiles | reported |
| --- | --- |
| COc1ccc(C[C@H]2NC(=O)/C=C/C[C@@H](c3cccc([N+](=O)[O-])c3)OC(=O)[C@H](CC(C)C)OC(=O)CCNC2=O)cc1 | < 4.00 |
| COc1ccc(C[C@H]2NC(=O)/C=C/C[C@@H](c3ccc(Cl)cc3Cl)OC(=O)[C@H](CC(C)C)OC(=O)CCNC2=O)cc1 | 4.00 |

Prompt: Given the entry `COc1ccc(C[C@@H]2NC(=O)/C=C/C[C@@H](c3c(F)c(F)c(F)c(F)c3F)OC(=O)[C@H](CC(C)C)OC(=O)CCNC2=O)cc1` , what pIC50 was observed with A549?
Completion: < 4.00
